Source listed as the Immune Epitope Database (IEDB).

Reported values of IC50 for individual entries
biological target: HLA-A*68:02; experiment: IEDB peptide-MHC binding, purified MHC/competitive/radioactivity; bounds were set here for any values at or beyond the usual limits of such assays; details: source organism: Vaccinia virus WR
Just the number please, in nM, no unit attached.

// known answers, use as guide
{"polymer-sequence": "FVTDYVHEGV", "target-under-test": "HLA-A*68:02", "value-observed": 1.6}
{"polymer-sequence": "YASLTTIGT", "target-under-test": "HLA-A*68:02", "value-observed": 52}
{"polymer-sequence": "IITILQDIV", "target-under-test": "HLA-A*68:02", "value-observed": 1070}
{"polymer-sequence": "PMSRLFMDEI", "target-under-test": "HLA-A*68:02", "value-observed": 1360}

// below: IC50 requested for another sequence
Ask: Which IC50 reading was recorded for the sequence MAGVEVRYI ?
Reply: 583

----------
target: HLA-A*02:02; assay: IEDB peptide-MHC binding, cellular MHC/competitive/fluorescence; bounds were set here for any values at or beyond the usual limits of such assays; conditions: source organism: Mammarenavirus brazilense
test-readout: pIC50
Interpret pIC50 as the negative base-10 log of the concentration measured in mol/L.

Ask: Which pIC50 reading was recorded for the sequence ICFWSTLFFT ?
Reply: 4.48

----------
biological target: HLA-A*02:01; test: IEDB peptide-MHC binding, cellular MHC/competitive/fluorescence; bounds were set here for any values at or beyond the usual limits of such assays; settings: source organism: Hepatitis B virus
Reported values of pIC50 for individual entries
Interpret pIC50 as the negative base-10 log of the concentration measured in mol/L.

// known answers, use as guide
{"polymer-sequence": "HQLDPAFRA", "target-under-test": "HLA-A*02:01", "pIC50": 5.19}
{"polymer-sequence": "RVRGLYFPA", "target-under-test": "HLA-A*02:01", "pIC50": 4.74}
{"polymer-sequence": "SMYPSCCCT", "target-under-test": "HLA-A*02:01", "pIC50": 5.19}
{"polymer-sequence": "RILTIPQSL", "target-under-test": "HLA-A*02:01", "pIC50": 4.41}

// below: pIC50 requested for another sequence
Ask: Which pIC50 reading was recorded for the sequence KVGAGAFGL ?
Reply: 4.96

----------
biological target: HLA-A*68:02; assay: IEDB peptide-MHC binding, cellular MHC/competitive/fluorescence; bounds were set here for any values at or beyond the usual limits of such assays; conditions: source organism: Hepatitis B virus
Rule: IC50 below 10 µM gives criterion met. Equal to or above 10 µM gives criterion not met.

Worked examples, 5 sequences total:
{"polymer-sequence": "KVGAGAFGL", "cat": "criterion not met"}
{"polymer-sequence": "HQLDPAFRA", "cat": "criterion not met"}
{"polymer-sequence": "YQGMLPVCPL", "cat": "criterion met"}
{"polymer-sequence": "FLGPLLVLQA", "cat": "criterion not met"}
{"polymer-sequence": "VLLDYQGML", "cat": "criterion not met"}

Next sequence, please.
Ask: Would you kindly verify if IC50 of HLYSHPIIL is strictly less than 10 µM?
Reply: criterion not met

----------
target: HLA-A*02:01; test: IEDB peptide-MHC binding, purified MHC/competitive/radioactivity; bounds were set here for any values at or beyond the usual limits of such assays; conditions: source organism: Vaccinia virus WR
test-readout: IC50 (nM)
Just the number please, in nM, no unit attached.

// known answers, use as guide
{"polymer-sequence": "IIIPFIAYFV", "value-observed": 1.2}
{"polymer-sequence": "YLNTNKLFFA", "value-observed": 9.9}
{"polymer-sequence": "YLGPRVCWL", "value-observed": 2.2}
{"polymer-sequence": "MLTNAISSRV", "value-observed": 208}
{"polymer-sequence": "YASIINRDI", "value-observed": 2230}

Ask: Missing value: IC50, HLA-A*02:01, entry AIIGLCAYA . Fill in?
Reply: 81

Ask: Also need LVDNVDFATI , thanks.
Reply: 3670

Ask: Also need QTSVFSATV , thanks.
Reply: 1670
